Data origin: PubChem BioAssay (NCI)

Tested on: RXF 393 renal
Experiment: NCI tumour cell line growth inhibition, 48 h
experimentalEndpoint: TGI (µM)

chemicalStructure	tgt	readoutQualifier	measValue
CC[n+]1c(/C=C/C=C2\N(C)c3ccccc3C2(C)C)sc2ccccc21	RXF 393 renal	=	10.3
Cc1nc2ccccc2c(/C=C/c2ccc(Cl)cc2)c1C(=O)/C=C/c1ccc(Cl)cc1	RXF 393 renal	=	3
COc1ccc(N(C)c2nc(N)nc3sc4c(c23)CCCC4)cc1	RXF 393 renal	=	20.7
N#C/C(=C/NC(=S)c1ccncc1)C(N)=O	RXF 393 renal	>	100
O=C1Nc2ccccc2Nc2ccncc21	RXF 393 renal	>	100
CCN(CC)c1ccc(/C=C/C=C2C(=O)NC(=S)NC2=O)cc1	RXF 393 renal	=	45.2

====

Tested on: SNB-78 CNS
Assay: NCI tumour cell line growth inhibition, 48 h

compound	TGI
ClC(Cl)[Si]12OCCN(CCO1)CCO2	> 100 µM
CC(=O)C1=C(O)C2C3c4c[nH]c5cccc(c45)CC3C(C)(C)N2C1=O (stereo not drawn)	> 100 µM
O=P(O)(O)C1(P(=O)(O)O)CC1	> 100 µM
CCSc1c2ccccc2c(-c2nc(F)nc(F)n2)n1CCc1ccccc1	> 100 µM
O=C1C(CN2CCOCC2)CCCC1CN1CCOCC1 (stereo not drawn)	5.02 µM
O=C1Nc2ccccc2Nc2ccncc21	> 100 µM
C=CCc1cc(OC)c2c(c1)C(OC)CC(c1ccc(OC)c(OC)c1)O2 (stereo not drawn)	> 100 µM
CCc1nc2ccc(NCCN(C)C)c3c(=O)c4ccccc4n1c23	19.3 µM
NS(=O)(=O)OCCCCCCCOS(N)(=O)=O	2020 µM
CN(c1ccccc1)c1c(Cl)c(=O)oc2c1ccc1occc12	> 100 µM
c1ccc2c(c1)cc1n2CC2CN=NC12 (stereo not drawn)	> 100 µM
C[C@]12CCC3[C@@H](CC[C@@H]4c5nonc5CC[C@]34C)C1CC[C@@H]2O (stereo partly drawn)	> 100 µM
O=C(Nc1nc2c(ncn2C2OC(CO)C(O)C2O)c(=O)[nH]1)c1ccccc1 (stereo not drawn)	> 100 µM

====

Each entry below lists one item and its recorded TGI value.
Tested on: UO-31 renal
Assay: NCI tumour cell line growth inhibition, 48 h

compound	readoutQualifier	TGI [µM]
C=CC(=O)N1CC2(CC(n3nc(-c4ccc5c(cnn5C)c4)c(-c4c(Cl)c(C)cc5[nH]ncc45)c3C)C2)C1	=	4.68
O=c1[nH]cnc2c1nnn2CCCCCCCCCCCCn1nnc2c(=O)[nH]cnc21	>	100
CCn1c(-c2nonc2N)nc2cncc(C(=O)N3CC[C@H](N)C3)c21	>	8.77
CCCCCCCCCCCC[n+]1ccc2ccccc2c1	=	3.23
COc1cc(CCc2ccc(N)cc2)cc(OC)c1OC	>	93.1
CC(=O)NC(CC(C)C)C(=O)NC(Cc1ccccc1)C(=S)N1CCCC1 (centres undefined)	>	100
CN(CCCNC(=O)CCOCCOCCOCCNC(=O)Cc1ccc2ccc3cccc4ccc1c2c34)CCCNc1cc(-c2ccc3ccccc3c2)nc2ccccc12	=	13.6
COc1ccc(/C=N/n2cnc3[nH]c(C)c(Cc4ccccc4)c3c2=N)cc1	>	100
NS(=O)(=O)OCCCCCCCOS(N)(=O)=O	=	680
COC(=O)[C@H]1CCCN1C(=O)[C@H]1CCCN1C(=O)[C@H](Cc1c[nH]c2ccccc12)NC(=S)Nc1cc(C(F)(F)F)cc(C(F)(F)F)c1	>	100
COc1ccc(/C(C#N)=C2C=C/C(=N/O)c3ccccc3\2)cc1	=	15.3
O=C1Nc2ccccc2Nc2ccncc21	>	100
CN1C(=O)C2(c3ccccc31)N(c1ccc(Cl)cc1)C(=O)C2(c1ccccc1)c1ccccc1 (centres undefined)	>	100
CC(=O)Oc1ccc(/C=C/C(=O)O[C@@H](C(=O)O)[C@@H](OC(=O)/C=C/c2ccc(OC(C)=O)c(OC(C)=O)c2)C(=O)O)cc1OC(C)=O	>	100
CC1CC(=O)N(N(C)C)C(C#N)(C#N)C1(C#N)C#N (centres undefined)	=	31.3
Nc1c(Cl)ncnc1NCCCNc1ncnc(Cl)c1N	>	100
Cn1c(N/N=C/c2ccccc2)nc(-c2ccc([N+](=O)[O-])cc2)c(C#N)c1=O	>	100
CC(C)(C)N(Cc1ccc2c(c1)OCO2)C(=O)/C=C\Sc1ccccc1	>	100
COc1ccc(N=N/C(C(=O)C(F)(F)F)=C(\O)c2ccc(Cl)cc2)cc1	=	47.6
C[Si](C)(C)C1=C([Si](C)(C)C)C(Cl)(Cl)C1=O	=	8.45
CC(=O)C1=C(O)C2C3c4c[nH]c5cccc(c45)CC3C(C)(C)N2C1=O (centres undefined)	=	81.6
O=C(CCc1ccccc1)On1c(-c2ccccc2)nc2ccccc2c1=S	=	39.3
CC(=O)[O][Hg][c]1c(C)c(C)cc(C)c1C	=	3.25
CCOC(=O)N(c1ccccc1)N(CC)C(=O)/C(C)=N/Nc1ccc([N+](=O)[O-])cc1	=	29.5
CCC(=O)c1c(C(F)(F)F)n([O-])c2cc(F)c(F)cc2[n+]1=O	=	3.05
COc1cc2cc(Oc3ccc(NC(=O)Nc4ccc(Cl)c(Cl)c4)cc3)c(C)nc2cc1OC	=	12.6
Cc1c(/C=N/N(C)C)oc2c1cc(O)c1ncccc12	=	7.12
CC(=N\N)/C(C)=N/N=C(C)/C(C)=N/N=C(C)/C(C)=N/N	>	100
C=CCOCn1cc(C)c(=O)[nH]c1=O	>	100
CC(=O)c1c(C)[nH]c(-c2nc3ccc(N4CCN(C)CC4)cc3[nH]2)c1-c1ccccc1	=	11.8
CC(=O)N(O)c1ccc(-c2nc3ccccc3s2)cc1	>	100
O=C(NNc1ccccc1)/C(=C/c1ccc2c(c1)OCO2)NC(=O)c1ccccc1	>	100
CCc1ccccc1NNc1cc(=O)[nH]c(=O)[nH]1	=	31.1
COc1cc(C2c3cc4c(cc3OC(N3CCNCC3)C2C)OCO4)cc(OC)c1OC (centres undefined)	=	15.6
